System: PNAG conjugates on the array (dPNAG, PNAG and intermediate levels of deacetylation)
Assay: Neoglycoprotein (glycan) microarray binding, 816-component array
Conditions: ability to bind both dPNAG and PNAG and intermediate levels of deacetylation

{"Molecule": "TG10 Y66A: TG10 HC Y66A (SEQ ID NO: 38) with TG10 LC (SEQ ID NO: 12) (antibody, V domains shown, Site directed mutation of TG10 HC Variable Region; TG10 Light Chain Variable Region) VH: EVQLVESGGGLVQPGGSLRLSCAVSGFPFSSYWMSWVRQAPGKGLEWVANIKEDGSEKAYVDSVKGRFTISRDNAKNSLYLQMNSLRAEDTAVYYCATDPDVGLSDSWGQGTLVTVSS VL: EIVLTQSPGTLSLSPGDRATHSCRASQSVSRSYLAWYQQKPGQTPRLFIYGASNRATGIPDRFSGSGSGTYFTLTISRLEPEDFAVYYCQQYDSAPDTFGQGTRLEIK", "PNAG Binding on Array": "Yes"}
